Biological target: human dopamine D4 receptor subtype (Homo sapiens)
Construct: expressed in transfected cells
Assay: D4 receptor binding, [3H]YM-09151-2 displacement
Counter-ions that a name gives are not always drawn.
observable: Ki (nM)
Express the result in nM but write the number alone.

What does the data say about its Ki? Entry: C1=C(c2ccccc2)CCN(Cc2cccc(-c3ccccc3)c2)C1 [Compound 3, hydrochloride]
18

* * *

Molecular target: human dopamine D4 receptor subtype (Homo sapiens, UniProt P21917)
Construct: expressed in transfected cells
Sequence (P21917 whole entry): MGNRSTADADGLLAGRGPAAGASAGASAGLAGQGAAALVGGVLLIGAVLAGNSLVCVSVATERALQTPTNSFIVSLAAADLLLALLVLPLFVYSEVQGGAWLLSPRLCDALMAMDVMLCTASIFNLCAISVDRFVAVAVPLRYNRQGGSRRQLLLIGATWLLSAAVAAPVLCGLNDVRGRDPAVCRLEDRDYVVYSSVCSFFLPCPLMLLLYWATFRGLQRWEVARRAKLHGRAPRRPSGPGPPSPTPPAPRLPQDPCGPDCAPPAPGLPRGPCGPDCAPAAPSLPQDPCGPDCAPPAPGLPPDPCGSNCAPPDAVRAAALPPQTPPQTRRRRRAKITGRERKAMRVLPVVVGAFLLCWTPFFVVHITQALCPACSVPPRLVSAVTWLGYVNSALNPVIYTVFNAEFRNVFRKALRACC
Assay: D4 receptor binding, [3H]YM-09151-2 displacement
Conditions: 0.1 nM [3H]YM-09151-2, 60 min, 25° C., clonal cell lines expressing human D4 (Table 2); read-out: Ki
pKi: −log10 of the molar value. Where a name gives a salt, the structure may show the parent alone.
The label depends only on pKi: satisfied if it is at least 7, not satisfied if it is smaller.

Is the recorded value of pKi equal to or greater than 7 for this compound? c1ccc(CC2CCN(Cc3ccnc(-c4ccccc4)c3)CC2)cc1 [Compound 9, dihydrochloride]
satisfied

Is the recorded value of pKi equal to or greater than 7 for this compound? c1ccc(CC2CCN(Cc3ccnc(-c4ccccc4)n3)CC2)cc1 [Compound 11, dihydrochloride]
not satisfied

Is the recorded value of pKi equal to or greater than 7 for this compound? c1ccc(-c2cc(CN3CCN(c4ncccn4)CC3)cc(-c3ccccc3)c2)cc1 [Compound 8, dihydrochloride]
not satisfied

Is the recorded value of pKi equal to or greater than 7 for this compound? COc1ccc(-c2ccccc2)cc1CN1CCN(c2ncccn2)CC1 [Compound 1, dihydrochloride]
satisfied

Is the recorded value of pKi equal to or greater than 7 for this compound? COc1ccc(CN2CCN(c3ncccn3)CC2)cc1-c1ccccc1 [Compound 2, dihydrochloride]
not satisfied

Is the recorded value of pKi equal to or greater than 7 for this compound? c1ccc(CC2CCN(Cc3cccc(-c4ccccc4)n3)CC2)cc1 [Compound 10]
not satisfied

Is the recorded value of pKi equal to or greater than 7 for this compound? c1ccc(-c2cccc(CN3CCC(c4ccccc4)CC3)c2)cc1 [Compound 4, hydrochloride]
satisfied

Is the recorded value of pKi equal to or greater than 7 for this compound? Cc1cc(-c2ccccc2)ccc1CN1CCC(Cc2ccccc2)CC1 [Compound 5]
not satisfied

* * *

What pIC50 was measured for each of the following?
Biological target: D2 receptor (Rattus norvegicus, UniProt P61169)
Sequence (P61169 whole entry): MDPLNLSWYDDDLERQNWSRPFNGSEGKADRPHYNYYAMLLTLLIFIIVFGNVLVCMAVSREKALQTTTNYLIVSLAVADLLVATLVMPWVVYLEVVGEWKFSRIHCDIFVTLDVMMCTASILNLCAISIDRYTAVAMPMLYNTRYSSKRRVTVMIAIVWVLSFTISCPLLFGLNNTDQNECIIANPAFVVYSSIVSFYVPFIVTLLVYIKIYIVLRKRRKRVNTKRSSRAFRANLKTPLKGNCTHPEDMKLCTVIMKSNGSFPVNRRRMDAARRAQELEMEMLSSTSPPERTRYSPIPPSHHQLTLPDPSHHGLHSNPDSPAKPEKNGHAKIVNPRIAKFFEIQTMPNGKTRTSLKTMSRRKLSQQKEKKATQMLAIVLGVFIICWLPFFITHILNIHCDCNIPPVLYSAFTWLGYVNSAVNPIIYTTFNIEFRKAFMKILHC
Test: biochemical
Format: binding
Conditions: 0.5 nM 3H-raclopride; rat striatal homogenates (Table 1); read-out: D2 binding IC50
Where a name gives a salt, the structure may show the parent alone.
Scale: pIC50 equals -log10([C]), with [C] in mol/L.

What does the data say about its pIC50? Entry: c1ccc(-c2cccc(CN3CCC(c4ccccc4)CC3)c2)cc1 [Compound 4, hydrochloride]
8.30

What does the data say about its pIC50? Entry: c1ccc(CC2CCN(Cc3ccnc(-c4ccccc4)c3)CC2)cc1 [Compound 9, dihydrochloride]
6.54

What does the data say about its pIC50? Entry: c1ccc(-c2cc(CN3CCN(c4ncccn4)CC3)cc(-c3ccccc3)c2)cc1 [Compound 8, dihydrochloride]
5.71

What does the data say about its pIC50? Entry: COc1ccc(-c2ccccc2)cc1CN1CCN(c2ncccn2)CC1 [Compound 1, dihydrochloride]
6.76

* * *

What pIC50 was measured for each of the following?
Molecular target: D3 receptor
Assay: D3 receptor binding, [3H]raclopride displacement
Settings: 0.5 nM 3H-raclopride; recombinantly produced D3 receptors, BHK 293 cells
Where a name gives a salt, the structure may show the parent alone.
Scale: pIC50 equals -log10([C]), with [C] in mol/L.

What does the data say about its pIC50? Entry: c1ccc(CC2CCN(Cc3cccc(-c4ccccc4)n3)CC2)cc1 [Compound 10]
5.94

What does the data say about its pIC50? Entry: Cc1cc(-c2ccccc2)ccc1CN1CCC(Cc2ccccc2)CC1 [Compound 5]
5.60

What does the data say about its pIC50? Entry: COc1ccccc1N1CCN(C(C)c2cccc(-c3ccccc3)c2)CC1 (stereo not shown) [Compound 7, dihydrochloride]
6.47

What does the data say about its pIC50? Entry: C1=C(c2ccccc2)CCN(Cc2cccc(-c3ccccc3)c2)C1 [Compound 3, hydrochloride]
7.92

What does the data say about its pIC50? Entry: c1ccc(-c2cccc(CN3CCC(c4ccccc4)CC3)c2)cc1 [Compound 4, hydrochloride]
7.21

What does the data say about its pIC50? Entry: c1ccc(CC2CCN(Cc3ccnc(-c4ccccc4)n3)CC2)cc1 [Compound 11, dihydrochloride]
5.79

What does the data say about its pIC50? Entry: CC(c1cccc(-c2ccccc2)c1)N(C)Cc1ccccc1 (stereo not shown) [Compound 6, hydrochloride]
5.21

Just for reference, patent US6221871A is where these values come from.
